Tested on: corn earworm (Helicoverpa zea)
Test: Insecticidal test on treated lepidopteran diet, corn earworm
Assay type: in vivo
Settings: 120 h; second-instar larvae on treated diet, 8 wells; dose of 50 mg/cm^2 [sic] (2000 ppm, 50 μL); dead insects counted 5 days after treatment; read-out: AVG HELIZE 50 (percent control, corn ear worm)
readout name: pest or weed control at 2000 µg/mL (%)

INSERT INTO assay_data (molecule, measurement_units, readout_number) VALUES
  ('CCCOc1ccc(Nc2nc(N/N=C/c3cccc(OC(F)(F)C(F)F)c3)nc(N3CCOCC3)n2)cc1 [Compound 79]', '%', 100),
  ('CONc1nc(N/N=C/c2cccc(C(F)(F)F)c2)nc(Nc2ccc(OC(F)(F)F)cc2)n1 [Compound 58]', '%', 100),
  ('Fc1ccc(/C=N/Nc2nc(NCc3ccc(Cl)nc3)nc(Nc3ccc(F)c(C(F)(F)F)c3)n2)cc1 [Compound 76]', '%', 100),
  ('Fc1ccc(Nc2nc(N/N=C/c3cccc(OC(F)(F)C(F)F)c3)nc(N3CCOCC3)n2)cc1F [Compound 78]', '%', 88),
  ('CCOc1nc(N/N=C/c2ccc(F)cc2)nc(Nc2ccc(OC(F)(F)F)cc2)n1 [Compound 11]', '%', 100),
  ('Fc1cccc(/C=N/Nc2nc(NCc3ccc(Cl)nc3)nc(Nc3ccc(F)c(C(F)(F)F)c3)n2)c1 [Compound 73]', '%', 100),
  ('Fc1ccc(Nc2nc(NCc3ccncc3)nc(N/N=C/c3ccc(OC(F)(F)F)cc3)n2)cc1C(F)(F)F [Compound 64]', '%', 100),
  ('FC(F)C(F)(F)Oc1ccc(/C=N/Nc2ncnc(Nc3cccc(C(F)(F)F)c3)n2)cc1 [Compound 100]', '%', 100),
  ('Fc1ccc(Nc2nc(NCc3ccc(Cl)nc3)nc(N/N=C/c3ccc(OC(F)(F)F)cc3)n2)cc1C(F)(F)F [Compound 2]', '%', 100),
  ('FC(F)(F)Oc1ccc(Nc2nc(N/N=C/c3ccc(Cl)cc3Cl)nc(N3CCOCC3)n2)cc1 [Compound 40]', '%', 0),
  ('CC1CN(c2nc(N/N=C/c3ccc(OC(F)(F)C(F)F)cc3)nc(Nc3ccc(F)c(C(F)(F)F)c3)n2)CC(C)O1 (stereo not drawn) [Compound 49]', '%', 100),
  ('Cc1cnc(CNc2nc(N/N=C/c3ccc(OC(F)(F)F)cc3)nc(Nc3ccc(F)c(C(F)(F)F)c3)n2)cn1 [Compound 57]', '%', 100),
  ('CCOc1nc(N/N=C/c2ccc(OC(F)(F)F)cc2)nc(Nc2cccc(C(F)(F)F)c2)n1 [Compound 12]', '%', 100),
  ('CC1CN(c2nc(N/N=C/c3cc(F)cc(C(F)(F)F)c3)nc(Nc3ccc(F)c(C(F)(F)F)c3)n2)CC(C)O1 (stereo not drawn) [Compound 47]', '%', 75),
  ('FC(F)(F)c1cccc(/C=N/Nc2ncnc(Nc3cccc(C(F)(F)F)c3)n2)c1 [Compound 103]', '%', 100),
  ('Fc1ccc(Nc2ncnc(N/N=C/c3ccc(OC(F)(F)C(F)F)cc3)n2)cc1C(F)(F)F [Compound 97]', '%', 100),
  ('FC(F)C(F)(F)Oc1cccc(/C=N/Nc2nc(Nc3ccc(OC(F)(F)F)cc3)nc(N3CCOCC3)n2)c1 [Compound 61]', '%', 100),
  ('FC(F)(F)COc1nc(N/N=C/c2ccc(Cl)c(Cl)c2)nc(Nc2ccc(OC(F)(F)F)cc2)n1 [Compound 30]', '%', 100),
  ('FC(F)C(F)(F)Oc1ccc(Nc2nc(N/N=C/c3ccc(Cl)c(Cl)c3)nc(N3CCOCC3)n2)cc1 [Compound 89]', '%', 100),
  ('CCNc1nc(N/N=C/c2ccc(OC(F)(F)F)cc2)nc(Nc2ccc(OC(F)(F)F)cc2)n1 [Compound 16]', '%', 0),
  ('FC(F)(F)Oc1ccc(Nc2nc(N/N=C/c3ccccc3Br)nc(N3CCOCC3)n2)cc1 [Compound 43]', '%', 0),
  ('FC(F)C(F)(F)Oc1ccc(Nc2ncnc(N/N=C/c3cccc(C(F)(F)F)c3)n2)cc1 [Compound 104]', '%', 88),
  ('FC(F)(F)Oc1ccc(Nc2nc(N/N=C/c3c(Cl)cccc3Cl)nc(N3CCOCC3)n2)cc1 [Compound 44]', '%', 0),
  ('FC(F)C(F)(F)Oc1ccc(Nc2nc(NCc3ccc(Cl)nc3)nc(N/N=C/c3ccc(C(F)(F)F)cc3)n2)cc1 [Compound 93]', '%', 100),
  ('Fc1ccc(Nc2nc(NCc3ccc(Cl)nc3)nc(N/N=C/c3ccc(OC(F)(F)C(F)F)cc3)n2)cc1C(F)(F)F [Compound 63]', '%', 100),
  ('FC(F)C(F)(F)Oc1ccc(Nc2nc(NCc3ccc(Cl)nc3)nc(N/N=C/c3ccc(Cl)cc3)n2)cc1 [Compound 87]', '%', 100),
  ('CC1CN(c2nc(N/N=C/c3ccc(OC(F)(F)F)cc3)nc(Nc3ccc(F)c(C(F)(F)F)c3)n2)CC(C)O1 (stereo not drawn) [Compound 46]', '%', 100),
  ('FC(F)(F)Oc1ccc(/C=N/Nc2nc(Nc3cccc(C(F)(F)F)c3)nc(N3CCOCC3)n2)cc1 [Compound 62]', '%', 100),
  ('FC(F)(F)COc1nc(N/N=C/c2ccccc2C(F)(F)F)nc(Nc2ccc(OC(F)(F)F)cc2)n1 [Compound 32]', '%', 100),
  ('Fc1ccc(Nc2nc(NCc3ccc(Cl)nc3)nc(N/N=C/c3ccc(C(F)(F)F)cc3)n2)cc1C(F)(F)F [Compound 65]', '%', 100);
